Molecular target: T1, human CD3 on T-cell lines (CD3-expressing Jurkat cells; HUT78 cells) (human, UniProt P07766 23-207)
T1 construct: On cells it stands in the CD3/TCR complex
T1 sequence (P07766 23-207 limits assumed): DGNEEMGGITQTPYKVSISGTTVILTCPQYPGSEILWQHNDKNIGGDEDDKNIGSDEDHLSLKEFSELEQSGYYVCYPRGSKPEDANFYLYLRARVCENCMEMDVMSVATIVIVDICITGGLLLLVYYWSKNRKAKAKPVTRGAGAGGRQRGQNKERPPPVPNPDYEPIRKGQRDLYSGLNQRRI
Experiment: flow cytometry, HUT78 cells
# HUT78 Bmax >= 800 gives criterion met, anything below gives criterion not met

1. SRP 2037-B10 F104D/LC6 (antibody, human IgG1, kappa, V domains shown, human IgG1, kappa) VH: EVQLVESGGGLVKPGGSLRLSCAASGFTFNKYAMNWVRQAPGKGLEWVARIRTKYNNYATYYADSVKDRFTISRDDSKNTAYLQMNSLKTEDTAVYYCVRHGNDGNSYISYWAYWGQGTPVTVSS VL: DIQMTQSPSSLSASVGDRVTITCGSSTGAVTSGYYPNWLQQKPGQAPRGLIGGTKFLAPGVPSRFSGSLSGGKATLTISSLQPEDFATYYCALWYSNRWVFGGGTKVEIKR
criterion not met
2. SRP 2037-B10 S107D/LC5 (antibody, human IgG1, kappa, V domains shown, human IgG1, kappa) VH: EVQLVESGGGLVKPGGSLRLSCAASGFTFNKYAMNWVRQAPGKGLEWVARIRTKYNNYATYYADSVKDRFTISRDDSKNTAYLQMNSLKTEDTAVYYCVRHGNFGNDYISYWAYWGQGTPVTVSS VL: DTQVTQSPSLSASVGDRVTITCGSSTGAVTSGYYPNWLQQKPGQAPRGLIGGTKFLAPGVPSRFSGSGSGTDFTLTISSLQPEDFATYYCALWYSNRWVFGGGTKVEIKR
criterion not met
3. SRP 2037-B10 Y61D/R97D (antibody, human IgG1, lambda, V domains shown, human IgG1, lambda) VH: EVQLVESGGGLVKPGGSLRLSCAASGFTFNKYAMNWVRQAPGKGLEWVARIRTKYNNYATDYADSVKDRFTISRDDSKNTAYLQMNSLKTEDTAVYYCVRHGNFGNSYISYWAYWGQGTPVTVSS VL: QTVVTQEPSLTVSPGGTVTLTCGSSTGAVTSGYYPNWLQQKPGQAPRGLIGGTKFLAPGTPARFSGSLLGGKAALTLSGVQPEDEAEYYCALWYSNDWVFGGGTQLTVTG
criterion met
4. SRP 2037-B10 S107D/R97D (antibody, human IgG1, lambda, V domains shown, human IgG1, lambda) VH: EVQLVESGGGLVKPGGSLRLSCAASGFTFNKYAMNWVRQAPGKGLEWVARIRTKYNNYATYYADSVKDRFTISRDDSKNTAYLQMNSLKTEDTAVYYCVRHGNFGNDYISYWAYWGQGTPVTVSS VL: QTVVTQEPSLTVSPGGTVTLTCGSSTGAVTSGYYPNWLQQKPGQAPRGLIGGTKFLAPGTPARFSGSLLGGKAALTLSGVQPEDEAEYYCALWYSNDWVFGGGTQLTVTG
criterion met
5. 2037-B10_Hc-Y55D (antibody, human IgG1, lambda, V domains shown, human IgG1, lambda; also called SRP 2037 Y55D; 2037-B10_VH-Y55D) VH: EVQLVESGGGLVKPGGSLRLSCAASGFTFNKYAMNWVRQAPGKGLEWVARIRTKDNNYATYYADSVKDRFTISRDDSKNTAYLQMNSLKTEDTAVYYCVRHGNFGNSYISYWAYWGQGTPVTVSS VL: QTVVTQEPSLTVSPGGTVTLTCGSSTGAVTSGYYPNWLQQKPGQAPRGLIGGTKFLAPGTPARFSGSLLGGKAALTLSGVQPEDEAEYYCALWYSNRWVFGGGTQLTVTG
criterion met
6. 2037-B10_Hc-F104D (antibody, human IgG1, lambda, V domains shown, human IgG1, lambda; also called SRP 2037 F104D; 2037-B10_VH-F104D) VH: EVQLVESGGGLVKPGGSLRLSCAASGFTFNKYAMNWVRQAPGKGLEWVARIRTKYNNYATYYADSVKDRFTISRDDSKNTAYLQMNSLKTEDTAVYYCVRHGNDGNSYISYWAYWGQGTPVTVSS VL: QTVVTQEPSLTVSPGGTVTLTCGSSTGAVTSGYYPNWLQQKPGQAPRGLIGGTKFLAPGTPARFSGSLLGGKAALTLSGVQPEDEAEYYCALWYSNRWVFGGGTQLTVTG
criterion met
7. SRP 2037-B10 F29D/LC6 (antibody, human IgG1, kappa, V domains shown, human IgG1, kappa) VH: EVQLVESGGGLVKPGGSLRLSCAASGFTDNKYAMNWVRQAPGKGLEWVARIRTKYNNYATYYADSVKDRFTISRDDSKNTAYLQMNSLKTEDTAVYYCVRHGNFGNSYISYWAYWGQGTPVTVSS VL: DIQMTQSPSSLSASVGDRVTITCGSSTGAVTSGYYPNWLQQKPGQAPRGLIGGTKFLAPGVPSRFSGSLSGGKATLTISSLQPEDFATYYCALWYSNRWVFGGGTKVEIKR
criterion met
8. SRP 2037-B10 Y55D/LC6 (antibody, human IgG1, kappa, V domains shown, human IgG1, kappa) VH: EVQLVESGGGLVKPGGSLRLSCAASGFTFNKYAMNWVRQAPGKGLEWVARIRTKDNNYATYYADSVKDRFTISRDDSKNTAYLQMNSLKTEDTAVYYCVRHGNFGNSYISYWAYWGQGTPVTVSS VL: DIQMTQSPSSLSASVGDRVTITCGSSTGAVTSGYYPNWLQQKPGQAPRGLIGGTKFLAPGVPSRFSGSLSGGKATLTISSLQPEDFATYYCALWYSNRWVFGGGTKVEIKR
criterion met
9. SRP 2037-B10 Y61D/LC5 (antibody, human IgG1, kappa, V domains shown, human IgG1, kappa) VH: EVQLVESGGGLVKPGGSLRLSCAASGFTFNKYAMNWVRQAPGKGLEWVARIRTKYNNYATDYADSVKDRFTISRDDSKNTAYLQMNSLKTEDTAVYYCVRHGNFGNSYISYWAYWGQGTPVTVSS VL: DTQVTQSPSLSASVGDRVTITCGSSTGAVTSGYYPNWLQQKPGQAPRGLIGGTKFLAPGVPSRFSGSGSGTDFTLTISSLQPEDFATYYCALWYSNRWVFGGGTKVEIKR
criterion not met
10. SRP 2037-B10 Y61D/LC6 (antibody, human IgG1, kappa, V domains shown, human IgG1, kappa) VH: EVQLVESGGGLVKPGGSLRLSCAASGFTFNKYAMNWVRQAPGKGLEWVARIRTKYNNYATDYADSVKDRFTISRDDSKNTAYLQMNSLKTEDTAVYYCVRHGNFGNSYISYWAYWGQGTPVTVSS VL: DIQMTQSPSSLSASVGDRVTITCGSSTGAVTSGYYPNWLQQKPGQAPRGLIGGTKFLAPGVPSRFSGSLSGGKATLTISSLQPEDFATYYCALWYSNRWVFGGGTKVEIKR
criterion not met
